# reported protein stability index; entries follow
B1: PRKX (parent)
chain: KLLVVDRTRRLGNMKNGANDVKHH

Variants of: B1
Method Summary: protein stability index of a GFP-peptide fusion (GPS, HEK-293T) (PSI 1-6); higher = more stable;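 also: lentivirally expressed fusions sorted by FACS into six bins by GFP to DsRed ratio, PSI derived from sequencing read proportions per bin multiplied by bin number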
Condition Details: c terminus: a fixed tail appended

Consider the reported protein stability index for these variants:
>>> print(df.to_string())
                        seq  result
0  KLLVVDRGRRLGNMKNGANDVKHH    2.55
1  KLLVVDRTRRLGNMKNGMNDVKHH    2.16
2  KLLVVDRTRRLINMKNGANDVKHH    2.04
3  KMLVVDRTRRLGNMKNGANDVKHH     3.5

What the record says about KLLVVDRTRRVGNMKNGANDVKHH : protein stability index is 3.09

What the record says about KLYVVDRTRRLGNMKNGANDVKHH : protein stability index is 2.69

What the record says about KLLVVDRTRELGNMKNGANDVKHH : protein stability index is 4.05

What the record says about KLLEVDRTRRLGNMKNGANDVKHH : protein stability index is 3.46

What the record says about KLLVVDRTRRLGNMKNGANDVKNH : protein stability index is 3.72

What the record says about KLLVVDRTRRLGNMKNGANDVKHD : protein stability index is 3.4

What the record says about KLLVVDRTRRLGNMKNGANDVKHS : protein stability index is 3.48

What the record says about ALLVVDRTRRLGNMKNGANDVKHH : protein stability index is 2.33
